- Test system: MCF7 complex spheroid growth, % test/control
- testMethodNotes: Anticancer human tumor MCF7 cell line growth inhibition [Asc]; active = viability on the fitted dose curve at most 10% of control; inactive = the rest;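 also: spheroids exposed to compounds for 7 days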
- conditions: second compound 0.01 µM; first compound 3.16 µM
Hello, when you answer, please use one of the following outcomes: active, inactive

Before answering, review these 2 worked examples.
O=C(c1cc(Cc2n[nH]c(=O)c3ccccc23)ccc1F)N1CCN(C(=O)C2CC2)CC1 + CNC(C)C(=O)NC1CN(S(=O)(=O)c2cccc(S(=O)(=O)N3CCC4CCC(C(=O)NC(c5ccccc5)c5ccccc5)N4C(=O)C(NC(=O)C(C)NC)C3)c2)CCC2CCC(C(=O)NC(c3ccccc3)c3ccccc3)N2C1=O: inactive
C=CC(=O)N1CCN(c2nc(=O)n(-c3c(C)ccnc3C(C)C)c3nc(-c4c(O)cccc4F)c(F)cc23)C(C)C1 (centres undefined) + CNC(C)C(=O)NC1CN(S(=O)(=O)c2cccc(S(=O)(=O)N3CCC4CCC(C(=O)NC(c5ccccc5)c5ccccc5)N4C(=O)C(NC(=O)C(C)NC)C3)c2)CCC2CCC(C(=O)NC(c3ccccc3)c3ccccc3)N2C1=O: inactive

Hi, sorry to bother you, what did the test record for C=C(F)C(=O)N1CCN(c2nc(OCC3CCCN3C)nc3c2CCN(c2cccc4cccc(Cl)c24)C3)CC1CC#N (centres undefined) + CNC(C)C(=O)NC1CN(S(=O)(=O)c2cccc(S(=O)(=O)N3CCC4CCC(C(=O)NC(c5ccccc5)c5ccccc5)N4C(=O)C(NC(=O)C(C)NC)C3)c2)CCC2CCC(C(=O)NC(c3ccccc3)c3ccccc3)N2C1=O ?
active

Given C#Cc1c(F)ccc2cc(O)cc(-c3ncc4c(N5CC6CCC(C5)N6)nc(OCC56CCCN5CC(F)C6)nc4c3F)c12 (centres undefined) + CNC(C)C(=O)NC1CN(S(=O)(=O)c2cccc(S(=O)(=O)N3CCC4CCC(C(=O)NC(c5ccccc5)c5ccccc5)N4C(=O)C(NC(=O)C(C)NC)C3)c2)CCC2CCC(C(=O)NC(c3ccccc3)c3ccccc3)N2C1=O , state the outcome it received in this test.
active

----------
The reader will find reported viability, T/C values listed item by item below.
- Test system: MCF7 complex spheroid growth, % test/control
- testMethodNotes: Anticancer human tumor MCF7 cell line growth inhibition [Asc];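 also: spheroids exposed to compounds for 7 days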;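 as to viability, T/C: 100% = DMSO vehicle control wells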
- conditions: second compound 0.1 µM; first compound 0.1 µM; stronger effect = lower value
Provide only the numeric value, understood in %.

Here is how some molecules turned out for viability, T/C.
O=C(c1cc(Cc2n[nH]c(=O)c3ccccc23)ccc1F)N1CCN(C(=O)C2CC2)CC1 + CNC(C)C(=O)NC1CN(S(=O)(=O)c2cccc(S(=O)(=O)N3CCC4CCC(C(=O)NC(c5ccccc5)c5ccccc5)N4C(=O)C(NC(=O)C(C)NC)C3)c2)CCC2CCC(C(=O)NC(c3ccccc3)c3ccccc3)N2C1=O: 13.8
C=CC(=O)N1CCN(c2nc(=O)n(-c3c(C)ccnc3C(C)C)c3nc(-c4c(O)cccc4F)c(F)cc23)C(C)C1 (stereo not given) + Cc1c(S(C)(=O)=O)c(-c2cc(F)cc(N3CCN(c4ccc(NS(=O)(=O)c5ccc(NC(CCN6CCC(C(=O)OCCCP(=O)(O)O)CC6)CSc6ccccc6)c(S(=O)(=O)C(F)(F)F)c5)cc4)CC3)c2)c(-c2ccc(Cl)cc2)n1C(C)C: 89.6
O=C(c1cc(Cc2n[nH]c(=O)c3ccccc23)ccc1F)N1CCN(C(=O)C2CC2)CC1 + Cc1c(S(C)(=O)=O)c(-c2cc(F)cc(N3CCN(c4ccc(NS(=O)(=O)c5ccc(NC(CCN6CCC(C(=O)OCCCP(=O)(O)O)CC6)CSc6ccccc6)c(S(=O)(=O)C(F)(F)F)c5)cc4)CC3)c2)c(-c2ccc(Cl)cc2)n1C(C)C: 99.8

Could you please provide reported viability, T/C for CCN1CCN(Cc2ccc(Nc3ncc(F)c(-c4cc(F)c5nc(C)n(C(C)C)c5c4)n3)nc2)CC1 + Cc1c(S(C)(=O)=O)c(-c2cc(F)cc(N3CCN(c4ccc(NS(=O)(=O)c5ccc(NC(CCN6CCC(C(=O)OCCCP(=O)(O)O)CC6)CSc6ccccc6)c(S(=O)(=O)C(F)(F)F)c5)cc4)CC3)c2)c(-c2ccc(Cl)cc2)n1C(C)C ? Thanks!
85.2

Kindly indicate its recorded viability, T/C. Item: COc1c(OCCCN2CCOCC2)ccc2c3n(c(=NC(=O)c4cnc(N)nc4)nc12)CCN3 + Cc1c(S(C)(=O)=O)c(-c2cc(F)cc(N3CCN(c4ccc(NS(=O)(=O)c5ccc(NC(CCN6CCC(C(=O)OCCCP(=O)(O)O)CC6)CSc6ccccc6)c(S(=O)(=O)C(F)(F)F)c5)cc4)CC3)c2)c(-c2ccc(Cl)cc2)n1C(C)C
33.2

----------
- System: MCF7 complex spheroid growth, % test/control
- testMethodNotes: Anticancer human tumor MCF7 cell line growth inhibition [Asc];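 also: spheroids exposed to compounds for 7 days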;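 as to viability, T/C: 100% = DMSO vehicle control wells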
- conditions: second compound 0.1 µM; first compound 0.001 µM; stronger effect = lower value
A collection of compounds and their measured viability, T/C

Below, 3 compounds whose answers are already recorded.
Cn1ncnc1[C@H]1c2n[nH]c(=O)c3cc(F)cc(c23)N[C@@H]1c1ccc(F)cc1 + Cc1c(S(C)(=O)=O)c(-c2cc(F)cc(N3CCN(c4ccc(NS(=O)(=O)c5ccc(NC(CCN6CCC(C(=O)OCCCP(=O)(O)O)CC6)CSc6ccccc6)c(S(=O)(=O)C(F)(F)F)c5)cc4)CC3)c2)c(-c2ccc(Cl)cc2)n1C(C)C: 89.8%
Cn1ncnc1[C@H]1c2n[nH]c(=O)c3cc(F)cc(c23)N[C@@H]1c1ccc(F)cc1 + CNC(C)C(=O)NC1CN(S(=O)(=O)c2cccc(S(=O)(=O)N3CCC4CCC(C(=O)NC(c5ccccc5)c5ccccc5)N4C(=O)C(NC(=O)C(C)NC)C3)c2)CCC2CCC(C(=O)NC(c3ccccc3)c3ccccc3)N2C1=O: 14.1%
NC1CCC(NC2CC2c2ccccc2)CC1 (centres undefined) + Cc1c(S(C)(=O)=O)c(-c2cc(F)cc(N3CCN(c4ccc(NS(=O)(=O)c5ccc(NC(CCN6CCC(C(=O)OCCCP(=O)(O)O)CC6)CSc6ccccc6)c(S(=O)(=O)C(F)(F)F)c5)cc4)CC3)c2)c(-c2ccc(Cl)cc2)n1C(C)C: 106%

Switching to the query record.
Provide the reported viability, T/C (system: MCF7 complex spheroid growth, % test/control) for NC1CCC(NC2CC2c2ccccc2)CC1 (centres undefined) + CNC(C)C(=O)NC1CN(S(=O)(=O)c2cccc(S(=O)(=O)N3CCC4CCC(C(=O)NC(c5ccccc5)c5ccccc5)N4C(=O)C(NC(=O)C(C)NC)C3)c2)CCC2CCC(C(=O)NC(c3ccccc3)c3ccccc3)N2C1=O
12.6%

----------
- Tested on: MCF7 complex spheroid growth, % test/control
- testMethodNotes: Anticancer human tumor MCF7 cell line growth inhibition [Asc];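 also: spheroids exposed to compounds for 7 days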
- conditions: curve of first compound; second compound 0.00316 µM
- From the text: Multicellular complex tumor spheroid response to apoptosis pathway targeting inhibitors Alrizomadlin, Pelcitoclax, and Dasminapant in combination with a variety of drugs and investigational agents in selected tumor cell lines […] Compounds. […] If the clinical Cmax for an agent had not been determined, the highest concentration tested was 10 microM. […]
pIC50: −log10 of the molar value.
Below is a list of entries, each paired with its recorded pIC50 value.

Cc1nc(N2CCC3(CC2)COC(C)C3N)c(CO)nc1Sc1ccnc(N)c1Cl (stereo not drawn) + CNC(C)C(=O)NC1CN(S(=O)(=O)c2cccc(S(=O)(=O)N3CCC4CCC(C(=O)NC(c5ccccc5)c5ccccc5)N4C(=O)C(NC(=O)C(C)NC)C3)c2)CCC2CCC(C(=O)NC(c3ccccc3)c3ccccc3)N2C1=O: > 8.02
CCN1C(C(=O)NC23CCC(C(=O)O)(CC2)CC3)C(c2cccc(Cl)c2F)C2(C(=O)Nc3cc(Cl)ccc32)C12CCCCC2 (stereo not drawn) + CNC(C)C(=O)NC1CN(S(=O)(=O)c2cccc(S(=O)(=O)N3CCC4CCC(C(=O)NC(c5ccccc5)c5ccccc5)N4C(=O)C(NC(=O)C(C)NC)C3)c2)CCC2CCC(C(=O)NC(c3ccccc3)c3ccccc3)N2C1=O: > 8.02

// moving on: another record for pIC50
Give pIC50 for the following molecule: O=C(c1ccc(F)c(F)c1Nc1ccc(I)cc1F)N1CC(O)([C@@H]2CCCCN2)C1 + CNC(C)C(=O)NC1CN(S(=O)(=O)c2cccc(S(=O)(=O)N3CCC4CCC(C(=O)NC(c5ccccc5)c5ccccc5)N4C(=O)C(NC(=O)C(C)NC)C3)c2)CCC2CCC(C(=O)NC(c3ccccc3)c3ccccc3)N2C1=O
> 8.50

----------
- System: MCF7 complex spheroid growth, % test/control
- testMethodNotes: Anticancer human tumor MCF7 cell line growth inhibition [Asc];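 also: spheroids exposed to compounds for 7 days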;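 as to viability, T/C: 100% = DMSO vehicle control wells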
- conditions: second compound 0.1 µM; first compound 0.03 µM; stronger effect = lower value
- Description: Multicellular complex tumor spheroid response to apoptosis pathway targeting inhibitors Alrizomadlin, Pelcitoclax, and Dasminapant in combination with a variety of drugs and investigational agents in selected tumor cell lines […] Compounds. […] If the clinical Cmax for an agent had not been determined, the highest concentration tested was 10 microM. […]
reportedProperty: viability, T/C (%)
State the answer as a number, implicitly in %.

Example entries begin here.
NC(=O)C(=Cn1cnc(-c2cc(C(F)(F)F)cc(C(F)(F)F)c2)n1)c1cncnc1 + CNC(C)C(=O)NC1CN(S(=O)(=O)c2cccc(S(=O)(=O)N3CCC4CCC(C(=O)NC(c5ccccc5)c5ccccc5)N4C(=O)C(NC(=O)C(C)NC)C3)c2)CCC2CCC(C(=O)NC(c3ccccc3)c3ccccc3)N2C1=O: 14.3
NC(=O)C(=Cn1cnc(-c2cc(C(F)(F)F)cc(C(F)(F)F)c2)n1)c1cncnc1 + Cc1c(S(C)(=O)=O)c(-c2cc(F)cc(N3CCN(c4ccc(NS(=O)(=O)c5ccc(NC(CCN6CCC(C(=O)OCCCP(=O)(O)O)CC6)CSc6ccccc6)c(S(=O)(=O)C(F)(F)F)c5)cc4)CC3)c2)c(-c2ccc(Cl)cc2)n1C(C)C: 76.4

Check the records and state viability, T/C for Cc1nc(N2CCC3(CC2)COC(C)C3N)c(CO)nc1Sc1ccnc(N)c1Cl (stereo not drawn) + CNC(C)C(=O)NC1CN(S(=O)(=O)c2cccc(S(=O)(=O)N3CCC4CCC(C(=O)NC(c5ccccc5)c5ccccc5)N4C(=O)C(NC(=O)C(C)NC)C3)c2)CCC2CCC(C(=O)NC(c3ccccc3)c3ccccc3)N2C1=O
12.7
